# assay.target: UniProtKB P25025
# Sequence (P25025 whole entry): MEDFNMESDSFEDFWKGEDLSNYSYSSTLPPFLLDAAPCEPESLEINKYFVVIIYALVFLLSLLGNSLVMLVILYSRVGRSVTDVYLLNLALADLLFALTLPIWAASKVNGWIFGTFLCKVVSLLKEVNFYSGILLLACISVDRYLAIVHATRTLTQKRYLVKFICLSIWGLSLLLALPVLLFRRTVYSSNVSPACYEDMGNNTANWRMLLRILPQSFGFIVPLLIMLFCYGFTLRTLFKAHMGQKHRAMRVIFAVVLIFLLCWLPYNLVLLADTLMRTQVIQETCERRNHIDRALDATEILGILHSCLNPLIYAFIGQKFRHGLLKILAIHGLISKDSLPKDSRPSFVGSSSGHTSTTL
# assay: CXCR2 antagonistic activity assay
# Format: cell-based
Is Ratio = CXCR1 IC50/CXCR2 IC50 (selectivity for CXCR2 over CXCR1) at least 20? Then Criterion met. If not, Criterion not met.

>>> group("CN(C)C(=O)c1cccc(Nc2c(NC3C[C@@H]4CC[C@H]3C4)c(=O)c2=O)c1O (some centres unmarked) [1a]")
"Criterion met"
>>> group("CN(C)C(=O)c1cccc(Nc2c(NC3C[C@H]4C[C@@H]3C3CCC[C@@H]34)c(=O)c2=O)c1O (some centres unmarked) [1d]")
"Criterion not met"
>>> group("CC(C)[S+]([O-])c1c(Cl)ccc(Nc2c(NC3C[C@@H]4CC[C@H]3C4)c(=O)c2=O)c1O (some centres unmarked) [2d]")
"Criterion met"
>>> group("Cc1ccc(Nc2c(NC3C[C@@H]4CC[C@H]3C4)c(=O)c2=O)c(O)c1 (some centres unmarked) [2a]")
"Criterion met"
>>> group("O=C(c1cccc(Nc2c(NC3C[C@@H]4CC[C@H]3C4)c(=O)c2=O)c1O)N1CCCC1 (some centres unmarked) [2e]")
"Criterion met"
>>> group("CN(C)C(=O)c1cccc(Nc2c(NCC3C[C@H]4CC[C@@H]3C4)c(=O)c2=O)c1O (some centres unmarked) [1f]")
"Criterion not met"
>>> group("CN(C)C(=O)c1cccc(Nc2c(NC3C[C@H]4CC[C@]3(C)C4(C)C)c(=O)c2=O)c1O (some centres unmarked) [1c]")
"Criterion not met"
>>> group("Cl.O=C(c1cccc(Nc2c(NC3C[C@@H]4CC[C@H]3C4)c(=O)c2=O)c1O)N1CCNCC1 (some centres unmarked) [2h]")
"Criterion met"

----------
IC50 reference
# assay.target: CXCR1 (Homo sapiens)
# Sequence (P25024 whole entry): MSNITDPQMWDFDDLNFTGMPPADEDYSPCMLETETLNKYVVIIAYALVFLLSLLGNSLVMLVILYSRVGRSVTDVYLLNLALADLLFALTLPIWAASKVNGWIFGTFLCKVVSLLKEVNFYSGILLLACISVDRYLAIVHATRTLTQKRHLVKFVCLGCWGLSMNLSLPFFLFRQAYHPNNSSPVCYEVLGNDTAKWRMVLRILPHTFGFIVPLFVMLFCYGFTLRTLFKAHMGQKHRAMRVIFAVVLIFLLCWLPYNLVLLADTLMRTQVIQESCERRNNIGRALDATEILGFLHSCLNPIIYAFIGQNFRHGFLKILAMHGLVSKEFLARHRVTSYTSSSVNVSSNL
# assay: CXCR1 antagonistic activity assay
result.type: IC50 (µM)

>>> meas_value("CN(C)C(=O)c1cccc(Nc2c(NCC3C[C@H]4CC[C@@H]3C4)c(=O)c2=O)c1O (stereo partly shown) [1f]")
48.8
>>> meas_value("CC(C)(C)OC(=O)N1CCN(C(=O)c2cccc(Nc3c(NC4C[C@@H]5CC[C@H]4C5)c(=O)c3=O)c2O)CC1 (stereo partly shown) [2g]")
5.6
>>> meas_value("Cc1ccc(Nc2c(NC3C[C@@H]4CC[C@H]3C4)c(=O)c2=O)c(O)c1 (stereo partly shown) [2a]")
86.1
>>> meas_value("N#Cc1ccc(Nc2c(NC3C[C@@H]4CC[C@H]3C4)c(=O)c2=O)c(O)c1 (stereo partly shown) [2b]")
42.7
>>> meas_value("CN(C)C(=O)c1cccc(Nc2c(NCC3C[C@H]4C=C[C@@H]3C4)c(=O)c2=O)c1O (stereo partly shown) [1e]")
30.8
>>> meas_value("CN(C)C(=O)c1cccc(Nc2c(NC3C[C@H]4CC[C@]3(C)C4(C)C)c(=O)c2=O)c1O (stereo partly shown) [1c]")
35.6
>>> meas_value("CC(C)S(=O)(=O)c1c(Cl)ccc(Nc2c(NC3C[C@@H]4CC[C@H]3C4)c(=O)c2=O)c1O (stereo partly shown) [2c]")
12.4
>>> meas_value("CC(C)[S+]([O-])c1c(Cl)ccc(Nc2c(NC3C[C@@H]4CC[C@H]3C4)c(=O)c2=O)c1O (stereo partly shown) [2d]")
6.5
>>> meas_value("CN(C)C(=O)c1cccc(Nc2c(NC3C[C@@H]4CC[C@H]3C4)c(=O)c2=O)c1O (stereo partly shown) [1a]")
7
>>> meas_value("CN(C)C(=O)c1cccc(Nc2c(NC3C[C@H]4C[C@@H]3C3CCC[C@@H]34)c(=O)c2=O)c1O (stereo partly shown) [1d]")
6.7
>>> meas_value("O=C(c1cccc(Nc2c(NC3C[C@@H]4CC[C@H]3C4)c(=O)c2=O)c1O)N1CCCCC1 (stereo partly shown) [2f]")
10.3

Origin of measurements: paper PMC9078949
